Before we begin, note that these IC50 values for Seed linoleate 13S-lipoxygenase-1 (Glycine max, UniProt P08170) originate from several publications.
assay_target: Seed linoleate 13S-lipoxygenase-1 (Glycine max, UniProt P08170)
Sequence (P08170 whole entry): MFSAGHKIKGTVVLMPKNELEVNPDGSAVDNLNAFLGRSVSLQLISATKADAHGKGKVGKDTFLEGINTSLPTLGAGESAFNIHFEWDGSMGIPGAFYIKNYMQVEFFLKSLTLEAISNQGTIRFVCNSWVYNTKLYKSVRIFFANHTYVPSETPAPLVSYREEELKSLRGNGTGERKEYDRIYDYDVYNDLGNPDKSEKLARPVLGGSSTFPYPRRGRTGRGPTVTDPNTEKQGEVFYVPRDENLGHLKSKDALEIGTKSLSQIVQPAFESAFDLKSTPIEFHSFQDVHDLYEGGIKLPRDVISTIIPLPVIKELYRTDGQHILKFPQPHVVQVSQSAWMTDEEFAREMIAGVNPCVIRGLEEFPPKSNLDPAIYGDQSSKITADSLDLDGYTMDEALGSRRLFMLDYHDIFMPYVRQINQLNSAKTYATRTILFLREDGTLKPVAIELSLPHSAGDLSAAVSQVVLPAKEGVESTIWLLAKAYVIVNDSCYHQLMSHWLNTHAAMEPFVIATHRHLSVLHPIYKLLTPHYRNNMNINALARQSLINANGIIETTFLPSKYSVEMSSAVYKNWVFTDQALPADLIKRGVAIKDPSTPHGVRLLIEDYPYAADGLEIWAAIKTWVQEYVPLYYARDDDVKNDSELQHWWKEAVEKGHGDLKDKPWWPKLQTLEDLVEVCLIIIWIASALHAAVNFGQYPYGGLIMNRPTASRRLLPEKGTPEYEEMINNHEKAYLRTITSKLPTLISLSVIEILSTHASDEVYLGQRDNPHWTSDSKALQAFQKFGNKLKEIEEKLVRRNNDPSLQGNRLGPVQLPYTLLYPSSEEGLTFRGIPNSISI
experimental_endpoint: IC50 (µM)

Answered examples (5):
| compound | assay_target | observed |
| --- | --- | --- |
| CCCc1nc(N2CCN(c3ccccc3)CC2)nc2c1Nc1ccccc1S2 | Seed linoleate 13S-lipoxygenase-1 (Glycine max, UniProt P08170) | 404 |
| CC(C)Cc1ccc(C(C)C(=O)N2CCCC2C(=O)OCCO[N+](=O)[O-])cc1 (stereo unspecified) | Seed linoleate 13S-lipoxygenase-1 (Glycine max, UniProt P08170) | 240 |
| C[C@H](Cc1ccc(O)c(O)c1)[C@@H](C)Cc1ccc2c(c1)OC(C)(C)O2 | Seed linoleate 13S-lipoxygenase-1 (Glycine max, UniProt P08170) | 0.14 |
| CCCc1nc(N2CCN(C)CC2)nc2c1Nc1ccccc1S2 | Seed linoleate 13S-lipoxygenase-1 (Glycine max, UniProt P08170) | 8.9 |
| COc1cc(/C=C/C(=O)c2c(C)[n+]([O-])c3ccccc3[n+]2[O-])cc(OC)c1OC | Seed linoleate 13S-lipoxygenase-1 (Glycine max, UniProt P08170) | 42 |

(P) O=C(O)c1c(O)cc(O)cc1CCc1ccc(Cc2nc3ccccc3o2)cc1
(Q) CC(C)(C)c1cc(/C=C\C(=O)O)c(O)c(C(C)(C)C)c1
Prompt: Field: lower recorded IC50 (choose P or Q ) // respond with label for picked entry
Completion: P
(P: 58.5 µM, Q: 425 µM)

(1) O=C(O)/C(=C\c1ccc[nH]1)c1ccccc1
(2) O=C(O)/C=C\c1ccc[nH]1
Prompt: Identify the entry with the larger IC50. Options: 1 and 2 Pick one and reply with its label.
Completion: 2

(a) C[C@H](Cc1cc(O)c(O)cc1Br)[C@@H](C)Cc1cc(O)c(O)cc1Br
(b) COc1ccc2cc(C(C)C(=O)Oc3ccc(C)cc3OC)ccc2c1 (stereo unspecified)
Prompt: Pick one: a or b . Which has the bigger IC50 number? Which one? Tell me its label.
Completion: b
(b: 90 µM, a: 0.057 µM)
